Task for the reader: assign each of the following compounds its reported TGI.
Tested on: NCI-H460 lung
Assay: NCI tumour cell line growth inhibition, 48 h
Give bare numbers, in µM.

Worked examples follow.
{"COMPOUND": "CCN1CCC(O)(/C=C/c2ccc(OC)cc2)C(C(=O)/C=C/c2ccc(OC)cc2)C1 (stereo not drawn)", "UNITS": "µM", "TGI": 27.6}
{"COMPOUND": "Fc1cc(-c2cc(-c3ccc4c(c3)OCO4)n[nH]2)c(Cl)cc1Cl", "UNITS": "µM", "TGI": 14.6}
{"COMPOUND": "O=C1C(Cl)=C(Nc2cccc(O)c2)C(=O)N1Cc1ccc(Cl)cc1Cl", "UNITS": "µM", "TGI": 29.7}
{"COMPOUND": "CCN(Cc1c(Cl)cccc1Cl)c1ccc(CO)c(Cl)c1", "UNITS": "µM", "TGI": 13.9}
{"COMPOUND": "c1ccc(CN2CCN3CCN(CC2)CCN(Cc2ccccc2)CC3)cc1", "UNITS": "µM", "TGI": 19.3}
{"COMPOUND": "CCCCCCCCCCCCCC(=O)N(CCCCCCCCC)CC(O)C(O)C(OC1OC(CO)C(O)C(O)C1O)C(O)CO (stereo not drawn)", "UNITS": "µM", "TGI": 39.1}
{"COMPOUND": "O=c1ccc2nc(-c3ccccn3)nn(-c3ccccc3)c-2c1", "UNITS": "µM", "TGI": 32.8}
{"COMPOUND": "O=C1OCC2=C1C(c1ccccc1)c1cc3c(cc1N2CCO)OCCO3 (stereo not drawn)", "UNITS": "µM", "TGI": 1.96}

Give TGI for each listed item.
1. CC#Cc1nc(Nc2cc(C)[nH]n2)c2ccccc2n1
2. O=C1c2ccccc2C(=O)c2[nH]c(Cc3ccc(F)cc3)nc21
3. Cn1cccc1/C=C/c1cc(Br)c(/C=C/c2cccn2C)cc1Br

[20.3, 31.1, 45.9]

====

Tested on: A549 NSCLC
Test: NCI tumour cell line growth inhibition, 48 h; in the data active = GI50 below about 0.43 µM; inactive = the rest
The reply should name one outcome from True = active, False = inactive

Reference set (2 entries):
{"COMPOUND": "Cc1ccc(Sc2cc3c(oc2=O)-c2ccccc2OC3O)cc1 (centres undefined)", "EXPERIMENTAL_TARGET": "A549 NSCLC", "QUALITATIVE_LABEL": "False"}
{"COMPOUND": "CCCCCn1c(C)cc(/C=C\\c2ccc3cc(C)ccc3[n+]2C)c1C", "EXPERIMENTAL_TARGET": "A549 NSCLC", "QUALITATIVE_LABEL": "True"}

Answer briefly: the call reported for CS(=O)(=O)N(c1cc(-c2ccc3ncnc(Nc4cccc(Cl)c4)c3c2)cnc1Cl)S(C)(=O)=O in this assay. False

Answer briefly: the call reported for Cc1nc(Nc2ncc(C(=O)Nc3c(C)cccc3Cl)s2)cc(N2CCN(CCO)CC2)n1 in this assay. True

====

System: MCF7 breast
Assay: NCI tumour cell line growth inhibition, 48 h; in the data active = GI50 below about 0.43 µM; inactive = the rest
The reply should name one outcome from active, inactive

Reference set (3 entries):
{"COMPOUND": "C=C(C(=O)O[C@H]1C(=O)C2=C(C)CCC3C(=C)C(=O)O[C@@H]3C2[C@]1(C)O)C1CC[C@]2(C)CCCC(=C)[C@H]2C1 (stereo not given in full)", "EXPERIMENTAL_TARGET": "MCF7 breast", "QUALITATIVE_LABEL": "inactive"}
{"COMPOUND": "CCN(c1cc(C#CCN2CCOCC2)cc(C(=O)NCc2c(C)cc(C)[nH]c2=O)c1C)C1CCC(N(C)CCOC)CC1 (stereo not given)", "EXPERIMENTAL_TARGET": "MCF7 breast", "QUALITATIVE_LABEL": "inactive"}
{"COMPOUND": "CC(=O)c1nc2ccccc2n1CC(=O)c1cccc(Cl)c1", "EXPERIMENTAL_TARGET": "MCF7 breast", "QUALITATIVE_LABEL": "active"}

Answer briefly: the call reported for CC#Cc1nc(Nc2cc(C)[nH]n2)c2ccccc2n1 in this assay. inactive

Answer briefly: the call reported for CC[C@H](C)C(=O)O[C@H]1C[C@H](O)C=C2C=C[C@H](C)[C@H](CC[C@@H](O)C[C@@H](O)CC(=O)O)[C@H]21 in this assay. inactive
